Tested on: JJN-3 (NIK translocated) multiple myeloma cells
Protocol Details: Antiproliferative activity on JJN-3 multiple myeloma cells (CellTiter-Glo)
Type: cell-based, human
Condition Label: Homo sapiens, JJN-3, 96 h, JJN-3 (NIK translocated) cells, 96 hr treatment, averaged values, read-out: JJN-3 Proliferation inhibition (IC50 (nM))
Task for the reader: assign each of the following compounds its reported IC50.
# output: bare number, implied unit nM

Report IC50 for `CC(C)Oc1nc(P(C)(C)=O)ccc1Nc1nccc(-c2cc(C#N)c3c(c2)[C@@](C)(CO)CN3)n1` please.
316

Report IC50 for `Cc1nc(/C=C/C(=O)N(C)C)ccc1Nc1nccc(-c2cc(C#N)c3c(c2)[C@@](C)(CO)CN3)n1` please.
144

Report IC50 for CC1(CO)CNc2c(C#N)cc(-c3nc(Nc4cc(Cl)cnc4OC4CCOCC4)ncc3F)cc21 (stereo not drawn) please.
2240

Report IC50 for `Cc1cc(Nc2nccc(-c3cc(C#N)c4c(c3)[C@@](C)(CO)CN4)n2)c(OC(C)C)nc1CCN1CC(F)C1` please.
62

Where do these numbers come from? They come from patent US11001569B2.
